Sourced from patent US20170081400A1

The reader will find reported TL1A Binding Level (Late) values listed item by item below.
# Study System: T1, human TL1A extracellular domain with N-terminal HIS and FLAG tag (human, UniProt O95150 72-251)
# T1 construct: whole entry named. ~70 kDa fraction purified by gel filtration
# T1 sequence: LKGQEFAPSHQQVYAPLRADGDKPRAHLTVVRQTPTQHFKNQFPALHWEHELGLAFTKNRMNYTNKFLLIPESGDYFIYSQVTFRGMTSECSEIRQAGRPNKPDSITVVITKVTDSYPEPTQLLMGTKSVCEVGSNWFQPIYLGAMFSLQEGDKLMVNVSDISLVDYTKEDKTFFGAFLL
# Protocol Summary: SPR run 2; supernatant on Protein A; TL1A 10 ug/mL; timepoint 220
Readout Name: TL1A Binding Level (Late) (RU)

- Binder: "320-200 (antibody, human IgG1, name in Kabat numbering, V domains shown, human IgG1, lambda) VH: QVQLVQSGAEVKKPGASVKVSCKASGYTFTSYDINWVRQAPGQGLEWMGWLNPNSGNTGYAQKFQGRVTMTADRSTSTAYMELSSLRSEDTAVYYCAREVPETAAFEYWGQGTLVTVSS VL: QSVLTQPPSVSGAPGQRVTISCYSSSSDIGAGLGVHWYQQLPGTAPKLLIEGYYNRPSGVPDRFSGSKSGTSASLTITGLLPEDEGDYYCQSYDGTLSALFGGGTKLTVLG"
  Observed Value: 231
- Binder: "320-202 (antibody, human IgG1, name in Kabat numbering, V domains shown, human IgG1, lambda) VH: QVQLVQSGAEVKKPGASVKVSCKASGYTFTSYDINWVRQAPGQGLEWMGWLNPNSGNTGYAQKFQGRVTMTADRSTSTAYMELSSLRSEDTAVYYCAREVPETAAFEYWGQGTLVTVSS VL: QSVLTQPPSVSGAPGQRVTISCTQSSSDIGAGLGVHWYQQLPGTAPKLLIEGYYNRPSGVPDRFSGSKSGTSASLTITGLLPEDEGDYYCQSYDGTLSALFGGGTKLTVLG"
  Observed Value: 214
